Collected koff values appear next to each entry.
# System tested: T1, full-length human Tau (Tau441; 2N4R), recombinant (human, UniProt P10636 1-758)
# T1 construct: made in E. coli, His6-Smt3 tag removed; biotinylated through amines for Octet and phage work; also called r-Tau; recombinant Tau
# T1 sequence (P10636 other isoform, or with tags, fused parts or gaps limits assumed): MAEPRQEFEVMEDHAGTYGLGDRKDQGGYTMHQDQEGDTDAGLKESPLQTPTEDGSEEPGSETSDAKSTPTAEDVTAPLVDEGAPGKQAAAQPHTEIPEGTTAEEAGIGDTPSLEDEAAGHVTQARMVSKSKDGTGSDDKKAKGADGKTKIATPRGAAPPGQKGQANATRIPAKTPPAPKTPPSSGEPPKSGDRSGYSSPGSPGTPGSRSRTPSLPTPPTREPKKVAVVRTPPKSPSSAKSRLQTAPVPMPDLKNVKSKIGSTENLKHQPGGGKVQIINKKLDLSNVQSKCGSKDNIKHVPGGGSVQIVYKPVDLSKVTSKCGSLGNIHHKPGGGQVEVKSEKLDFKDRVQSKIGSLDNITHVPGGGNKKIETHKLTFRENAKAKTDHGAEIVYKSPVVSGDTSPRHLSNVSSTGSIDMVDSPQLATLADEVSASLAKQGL
# Protocol text: SPR Biacore
# Method: IgG was purified with protein A affinity chromatography. The affinity of each hulC7 IgG variant for r-Tau was determined by surface plasmon resonance using a Biacore™ T200 instrument. Biacore™ Series S CM5 sensor chips were immobilized with monoclonal mouse anti-human IgG (Fc) antibody (Human antibody capture kit from GE Healthcare). […] Each sample was analyzed with 3-minute association and 10-minute dissociation. […]
Respond with the bare value in s⁻¹.

Clone with H1_2-3 (antibody, V domains shown, based on hu1C7.v2) VH: EVQLLESGGGLVQPGGSLRLSCAASGFTFSQVGTSWVRQAPGKGLEWVASISGDGGSYIHYADSVKGRFTISRDNSKNTLYLQMNSLRAEDTAVYYCARLPYWGQGTLVTVSS VL: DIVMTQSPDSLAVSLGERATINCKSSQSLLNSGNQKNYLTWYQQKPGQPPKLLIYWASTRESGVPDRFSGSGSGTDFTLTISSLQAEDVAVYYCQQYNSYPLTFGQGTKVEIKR; 9.39e-05

Task: Reported koff for Clone with L1_3-8 (antibody, V domains shown, based on hu1C7.v2) VH: EVQLLESGGGLVQPGGSLRLSCAASGFTFSSYGMSWVRQAPGKGLEWVASISGDGGSYIHYADSVKGRFTISRDNSKNTLYLQMNSLRAEDTAVYYCARLPYWGQGTLVTVSS VL: DIVMTQSPDSLAVSLGERATINCKSSQSLHLSGTQKDYLVWYQQKPGQPPKLLIYWASTRESGVPDRFSGSGSGTDFTLTISSLQAEDVAVYYCQQYNSYPLTFGQGTKVEIK : what is it?
Output: 0.000391

Task: Reported koff for Clone with L1_5 (antibody, V domains shown, based on hu1C7.v2) VH: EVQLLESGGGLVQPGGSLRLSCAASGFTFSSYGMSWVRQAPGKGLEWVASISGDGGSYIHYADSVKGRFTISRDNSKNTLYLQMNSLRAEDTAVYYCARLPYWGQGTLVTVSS VL: DIVMTQSPDSLAVSLGERATINCKSSQSLLSSGNQKNYLTWYQQKPGQPPKLLIYWASTRESGVPDRFSGSGSGTDFTLTISSLQAEDVAVYYCQQYNSYPLTFGQGTKVEIKR : what is it?
Output: 0.000885
